Target: pooled human IgG (human IgG1,2,3 and 4)
Reported Enzyme Activity Endpoint Assay: IgG values for a set of proteins
experimental endpoint: Enzyme Activity Endpoint Assay: IgG (ng/µL)

INSERT INTO assay_data (protein, experimental_endpoint, val) VALUES
  ('PRT-503 (protein) MITSVWTKGVTPPTDFIKGEDVFHAPYKAGQGWYDITKAFDGGDDLLCGAATAGNMLHWWFDQNKEYIEAYLKKHPEKQKIMFGDQELLDVRKAINTKGSQKNSELFNYFRDKAFPNLSARRLGVMPDLVLDMFINGYYLNVTKTQTTDVNRQEQEKDKRGGIFDAVFGRGDQTKLLTSRHDLKNKGLNEISQLIKQELTEGKALGLSHTYANVRINHVINLWGADFDADGNLEAIYVTDSDSNASIGMKKYFVGVNSAGKVAISAKEIKEDNIGAQVLGLFTLSTGQKIWNKTNLEHHHHHH', 'Enzyme Activity Endpoint Assay: IgG', 0),
  ('PRT-88 (protein) MANQEIRYSEVTPYHVTSVWTKGVTPPAKFTQGEDVFHAPYVANQGWYDITKTFNGKDDLLCGAATAGNMLHWWFDQNKEKIEAYLKKHPEKQKIMFGDQELLDVRKVINTKGDQTNSELFNYFRDKAFPGLSARRLGVMPDLVLDMFINGYYLNVYKTQTTDVNRTYQEKDRRGGIFDAVFTRGDQSKLLTSRHDFKEKNLKEISDLIKKELTEGKALGLSHTYANVRINHVINLWGADFDSNGNLKAIYVTDSDSNASIGMKKYFVGVNSAGKVAISAKEIKEDNIGAQVLGLFTLSTGQDIWNQTN', 'Enzyme Activity Endpoint Assay: IgG', 25),
  ('PRT-105 (protein) MANQEIRYSEVTPYHVTSVWTKGVTPPAKFTQGEDVFHAPYVANQGWYDITKTFNGKDDLLCGAATAGNMLHWWFDQNKEEIEAYLKKHPDKQKIMFGDQELLDVRKVINTKGDQTNSELFNYFRDKAFPGLSARRIGVMPDLVLDMFINGYYLNVYKTQTTDVNRTYQEKDRRGGIFDAVFTRGDQSKLLTSRHDFKEKNLKEISDLIKKELTEGKALGLSHTYANVRINHVINLWGADFDSNGNLKAIYVTDSDSNASIGMKKYFVGVNSAGKVAISAKEIKEDNIGAQVLGLFTLSTGQDSWNQTN', 'Enzyme Activity Endpoint Assay: IgG', 0),
  ('PRT-106 (protein) MRNATEAYAKEVPHQITSVWTKGVTPLTPEQFRYNNEDVIHAPYLAHQGWYDITKTFNGKDNLLCGAATAGNMLHWWFDQNKTEIEAYLSKHPEKQKIIFNNQELFDLKAAIDTKDSQTNSQLFNYFRDKAFPNLSARQLGVMPDLVLDMFINGYYLNVFKTQSTDVNRPYQDKDKRGGIFDAVFTRGDQTTLLTARHDLKNKGLNDISTLIKQELTEGRALALSHTYANVSISHVINLWGADFNAEGNLEAIYVTDSDANASIGMKKYFVGINASGKVAISAKKIEGENIGAQVLGLFTLSSGKDIWQKLS', 'Enzyme Activity Endpoint Assay: IgG', 0);
